molecular target: T1, integrin αVβ3 (UniProt P06756 31-992; P05106 27-718); experiment: phage ELISA, coated integrin, anti-M13-HRP
T1 construct: Coated on the ELISA plate
T1 sequence (P06756 31-992, chain 1 of 2): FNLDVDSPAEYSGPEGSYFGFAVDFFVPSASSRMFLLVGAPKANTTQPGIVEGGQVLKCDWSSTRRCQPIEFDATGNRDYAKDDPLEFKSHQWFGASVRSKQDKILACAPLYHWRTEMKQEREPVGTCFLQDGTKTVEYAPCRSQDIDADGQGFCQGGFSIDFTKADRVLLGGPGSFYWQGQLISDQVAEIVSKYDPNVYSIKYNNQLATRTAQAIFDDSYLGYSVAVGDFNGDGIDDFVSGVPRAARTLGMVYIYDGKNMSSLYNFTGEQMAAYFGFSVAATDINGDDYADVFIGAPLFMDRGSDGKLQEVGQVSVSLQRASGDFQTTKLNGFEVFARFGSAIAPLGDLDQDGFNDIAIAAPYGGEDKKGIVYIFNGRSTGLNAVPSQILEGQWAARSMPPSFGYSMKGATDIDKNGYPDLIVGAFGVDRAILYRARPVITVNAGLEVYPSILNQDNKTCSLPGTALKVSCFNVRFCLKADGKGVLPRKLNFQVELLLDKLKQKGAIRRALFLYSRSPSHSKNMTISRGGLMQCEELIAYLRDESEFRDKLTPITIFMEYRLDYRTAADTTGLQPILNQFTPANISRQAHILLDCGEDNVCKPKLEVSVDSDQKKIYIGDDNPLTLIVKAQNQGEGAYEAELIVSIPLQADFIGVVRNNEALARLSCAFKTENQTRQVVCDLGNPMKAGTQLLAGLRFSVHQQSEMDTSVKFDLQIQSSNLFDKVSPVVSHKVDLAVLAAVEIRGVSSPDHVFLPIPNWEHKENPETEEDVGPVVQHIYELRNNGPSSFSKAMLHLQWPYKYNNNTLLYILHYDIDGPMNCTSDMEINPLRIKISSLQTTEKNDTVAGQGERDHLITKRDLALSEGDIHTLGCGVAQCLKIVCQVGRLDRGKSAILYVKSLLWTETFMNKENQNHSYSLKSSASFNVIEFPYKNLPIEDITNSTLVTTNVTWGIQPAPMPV
T1 sequence (P05106 27-718, chain 2 of 2): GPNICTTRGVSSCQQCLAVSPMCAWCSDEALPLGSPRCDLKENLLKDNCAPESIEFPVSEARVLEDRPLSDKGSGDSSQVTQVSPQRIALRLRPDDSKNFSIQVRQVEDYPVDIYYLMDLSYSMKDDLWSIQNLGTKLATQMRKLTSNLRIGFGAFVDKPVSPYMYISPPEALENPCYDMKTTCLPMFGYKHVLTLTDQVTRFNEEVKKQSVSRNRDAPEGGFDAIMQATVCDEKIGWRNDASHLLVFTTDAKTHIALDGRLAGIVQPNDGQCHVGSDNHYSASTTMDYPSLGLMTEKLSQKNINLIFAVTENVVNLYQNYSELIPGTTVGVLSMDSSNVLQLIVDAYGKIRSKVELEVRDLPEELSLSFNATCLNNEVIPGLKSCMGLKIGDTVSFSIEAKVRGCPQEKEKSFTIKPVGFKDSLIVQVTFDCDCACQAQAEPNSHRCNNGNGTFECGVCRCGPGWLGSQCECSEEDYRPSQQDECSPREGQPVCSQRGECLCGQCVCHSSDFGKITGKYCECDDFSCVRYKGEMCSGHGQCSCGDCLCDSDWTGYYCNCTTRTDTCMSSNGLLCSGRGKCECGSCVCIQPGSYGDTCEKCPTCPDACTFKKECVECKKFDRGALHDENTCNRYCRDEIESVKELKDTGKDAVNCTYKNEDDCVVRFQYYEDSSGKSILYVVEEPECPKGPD
Measure name: αvβ3 signal (OD)

- Binder: "M13 phage pKK95 displaying MICA α3 domain with loop 1 insert 3.4 (designed binder, not shown: large carriers) TVPPMVNVTRSARGDSDHRVTCRASGFYPWNITLSWRQDGVSLSHDTQQWGDVLPDGNGTYQTWVATRICQGEEQRFTCYMEHSGNHSTHPVPSGK"
  Observed: 0.345
- Binder: "M13 phage pKK91 displaying MICA α3 domain with loop 3 insert His10sp (designed binder, also called 3-His10; not shown: C-terminal portion of M13 gene III protein, fused at codon position 198) TVPPMVNVTRSEASEGNITVTCRASGFYPWNITLSWRQDGVSLSHDTQQWGDVLPDGNGTYQTWVATRISGGSGGGSHHHHHHHHHHSGGSGGGCYMEHSGNHSTHPVPSGK"
  Observed: 0.303
- Binder: "M13 phage pKK112 displaying MICA α3 domain with tight loop 1 insert T-AMY (loop 1 from tendamistat) (designed binder, not shown: large carriers) TVPPMVNYQSWRYSQCRASGFYPWNITLSWRQDGVSLSHDTQQWGDVLPDGNGTYQTWVATRICQGEEQRFTCYMEHSGNHSTHPVPSGK"
  Observed: 0.46
- Binder: "M13 phage pKK109 displaying MICA α3 domain with tight loop 1 insert T-3.3 (designed binder, not shown: large carriers) TVPPMVNRVPRGDSDLTCRASGFYPWNITLSWRQDGVSLSHDTQQWGDVLPDGNGTYQTWVATRICQGEEQRFTCYMEHSGNHSTHPVPSGK"
  Observed: 0.23
- Binder: "M13 phage pKK100 displaying MICA α3 domain with loop 1 insert 3.2sp (designed binder, not shown: large carriers) TVPPMVNVTSGGSGGGSTSRGDHPRTQSGGSGGGVTCRASGFYPWNITLSWRQDGVSLSHDTQQWGDVLPDGNGTYQTWVATRICQGEEQRFTCYMEHSGNHSTHPVPSGK"
  Observed: 0.201
